Target Or System: Retinoic acid receptor gamma (Homo sapiens)
Sequence (P13631 whole entry): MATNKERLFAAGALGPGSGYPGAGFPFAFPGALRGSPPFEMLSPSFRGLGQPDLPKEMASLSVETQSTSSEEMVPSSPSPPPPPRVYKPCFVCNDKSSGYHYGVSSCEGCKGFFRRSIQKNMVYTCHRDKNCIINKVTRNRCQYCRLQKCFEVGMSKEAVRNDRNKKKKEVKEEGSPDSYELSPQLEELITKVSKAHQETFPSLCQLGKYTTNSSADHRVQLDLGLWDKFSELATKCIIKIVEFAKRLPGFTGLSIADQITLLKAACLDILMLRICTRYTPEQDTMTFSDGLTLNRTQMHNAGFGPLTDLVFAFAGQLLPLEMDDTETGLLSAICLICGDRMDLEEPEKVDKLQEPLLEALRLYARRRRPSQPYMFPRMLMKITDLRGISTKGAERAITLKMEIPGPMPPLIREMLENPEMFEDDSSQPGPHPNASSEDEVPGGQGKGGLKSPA
Experiment Summary: Binding affinity towards retinoic acid receptor gamma was determined using [3H]ATRA (5 nM) as radioligand
Recorded Endpoint: Kd (nM)
Entry rule: numbers only, all in nM.

Cc1ccc(C2=CCC(C)(C)C=C2/C=C/C#Cc2ccc(C(=O)O)cc2)cc1 : 31

Retinoic acid receptor gamma (Homo sapiens) Kd of "CC1=C(/C=C/C#Cc2ccc(C(=O)O)cc2)C(C)(C)CCC1" is 190

Retinoic acid receptor gamma (Homo sapiens) Kd of "CC1(C)CCC(C)(C)c2cc(C/C=C/c3ccc(C(=O)O)cc3)ccc21" is 26

Retinoic acid receptor gamma (Homo sapiens) Kd of "CC1(C)CCCC(c2ccc(C(C)(C)C)cc2)=C1/C=C/C#Cc1ccc(C(=O)O)cc1" is 331

###

Target Or System: Retinoic acid receptor beta (Homo sapiens) (UniProt P10826)
Sequence (whole entry): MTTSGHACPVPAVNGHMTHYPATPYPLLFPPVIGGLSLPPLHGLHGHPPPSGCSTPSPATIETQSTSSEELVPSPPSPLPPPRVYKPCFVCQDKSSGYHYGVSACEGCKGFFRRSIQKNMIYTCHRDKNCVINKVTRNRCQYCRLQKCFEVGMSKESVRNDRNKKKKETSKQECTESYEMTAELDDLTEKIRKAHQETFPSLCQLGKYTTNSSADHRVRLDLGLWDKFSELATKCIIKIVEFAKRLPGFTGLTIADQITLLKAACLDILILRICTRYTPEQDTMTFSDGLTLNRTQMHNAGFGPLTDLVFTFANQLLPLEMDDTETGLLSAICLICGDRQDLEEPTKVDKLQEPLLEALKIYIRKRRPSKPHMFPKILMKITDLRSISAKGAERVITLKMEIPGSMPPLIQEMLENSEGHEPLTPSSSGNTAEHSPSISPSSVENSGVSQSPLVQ
Experiment Summary: Efficacy of TTNPB (10 nM) function at retinoic acid receptor beta (10 uM)
Catalogue of Efficacy readings, one per entry.

CCc1ccc(C2=C(/C=C/C#Cc3ccc(C(=O)O)cc3)C(C)(C)CCC2)cc1 : 96%
Cc1ccc(C2=CCC(C)(C)C=C2/C=C/C#Cc2ccc(C(=O)O)cc2)cc1 : 94%
CC1(C)CCCC(c2ccc(C(C)(C)C)cc2)=C1/C=C/C#Cc1ccc(C(=O)O)cc1 : 96%
Cc1ccc(C2=C(/C=C/C#Cc3ccc(C(=O)O)cc3)C(C)(C)CCC2)cc1 : 92%

Per the record, "Cc1ccc(C2=CCC(C)(C)c3ccc(C#Cc4ccc(C(=O)O)cc4)cc32)cc1" has Efficacy of 97%

###

Catalogue of Kd readings, one per entry.
Target Or System: Retinoic acid receptor alpha (Homo sapiens)
Sequence (P10276 whole entry): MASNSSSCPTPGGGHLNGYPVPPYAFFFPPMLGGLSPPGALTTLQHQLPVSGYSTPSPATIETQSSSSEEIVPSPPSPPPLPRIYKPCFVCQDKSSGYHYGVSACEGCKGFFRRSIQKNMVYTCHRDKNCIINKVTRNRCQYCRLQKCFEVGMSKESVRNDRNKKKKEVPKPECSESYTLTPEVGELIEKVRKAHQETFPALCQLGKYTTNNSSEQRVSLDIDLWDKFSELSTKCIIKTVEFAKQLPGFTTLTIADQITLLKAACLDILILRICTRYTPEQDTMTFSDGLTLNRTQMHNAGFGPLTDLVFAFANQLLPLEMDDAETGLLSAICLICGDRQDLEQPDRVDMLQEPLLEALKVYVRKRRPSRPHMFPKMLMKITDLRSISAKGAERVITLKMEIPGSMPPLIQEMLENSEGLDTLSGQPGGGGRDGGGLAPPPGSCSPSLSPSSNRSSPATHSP
Entry rule: numbers only, all in nM.

Recorded results for 2 compounds are shown here.
Cc1ccc(C2=CCC(C)(C)C=C2/C=C/C#Cc2ccc(C(=O)O)cc2)cc1 : 252
Cc1ccc(C2=CCC(C)(C)c3ccc(C#Cc4ccc(C(=O)O)cc4)cc32)cc1 : 17

Below: the item to evaluate.
Per the record, "CC1(C)CCCC(c2ccc(C(C)(C)C)cc2)=C1/C=C/C#Cc1ccc(C(=O)O)cc1" has Kd of 875

###

Target Or System: Retinoic acid receptor beta (Homo sapiens, UniProt P10826)
Sequence (P10826 whole entry): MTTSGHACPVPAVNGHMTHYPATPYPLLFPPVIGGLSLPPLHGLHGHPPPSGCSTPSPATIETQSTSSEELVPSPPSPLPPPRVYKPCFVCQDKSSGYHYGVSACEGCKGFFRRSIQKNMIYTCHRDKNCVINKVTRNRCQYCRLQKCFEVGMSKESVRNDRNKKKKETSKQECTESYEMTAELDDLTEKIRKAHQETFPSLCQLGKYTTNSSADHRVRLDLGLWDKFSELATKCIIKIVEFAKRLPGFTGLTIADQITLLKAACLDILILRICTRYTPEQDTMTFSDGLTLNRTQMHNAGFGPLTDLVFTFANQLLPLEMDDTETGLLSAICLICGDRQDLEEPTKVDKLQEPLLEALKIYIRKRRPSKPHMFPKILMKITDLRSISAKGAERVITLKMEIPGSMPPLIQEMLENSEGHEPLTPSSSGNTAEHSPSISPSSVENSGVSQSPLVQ
Experiment Summary: Ability to inhibit TTNPB-induced transactivation at retinoic acid receptor beta
Catalogue of EC50 readings, one per entry.

CC1(C)CCC(C)(C)c2cc(C/C=C/c3ccc(C(=O)O)cc3)ccc21 : 8 nM

Below: the item to evaluate.
Per the record, "CC1=C(/C=C/C#Cc2ccc(C(=O)O)cc2)C(C)(C)CCC1" has EC50 of 7 nM
